Answer each item with its documented ratio activity, negative = inhibition.
Assay: S16 Schwann cell PMP22 intronic element beta-lactamase assay (AID 624044);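 note: 0% = DMSO and -100% = potassium clavulanate positive control; nearly all actives have a fitted effect of over 15% in size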
Settings: S16 rat Schwann cells, PMP22 element beta-lactamase FRET, 24 h; at 38.3 µM (top of the series) unless noted
Inconclusive results are not listed. Calls of active or inactive are those of the source. Calls come from the whole dose curve.

Sample records with ratio activity, negative = inhibition:
[
  {
    "compound": "CN(C)C=Nc1c(I)cc(I)c(CCC(=O)O)c1I",
    "ratio activity, negative = inhibition": "2.26% (inactive)"
  },
  {
    "compound": "NC(=S)NS(=O)(=O)c1ccc(N)cc1",
    "ratio activity, negative = inhibition": "-12.7% (active)"
  },
  {
    "compound": "CC1=CCC2CC1C2(C)C (centres undefined)",
    "ratio activity, negative = inhibition": "2.01% (inactive)"
  },
  {
    "compound": "CCCCCCCCCCCCCCCCCC(=O)OCC(C)O (centres undefined)",
    "ratio activity, negative = inhibition": "-0.254% (inactive)"
  },
  {
    "compound": "OCC(O)CO",
    "ratio activity, negative = inhibition": "2.96% (inactive)"
  },
  {
    "compound": "CCN(CC)CCOC(=O)c1cccnc1",
    "ratio activity, negative = inhibition": "2.66% (inactive)"
  },
  {
    "compound": "ClC(Cl)Cl",
    "ratio activity, negative = inhibition": "4.84% (inactive)"
  },
  {
    "compound": "[O-][N+](=Nc1ccccc1)c1ccccc1",
    "ratio activity, negative = inhibition": "3.38% (inactive)"
  }
]

Batch request: ratio activity, negative = inhibition per item, same order as input.
1. O=[n+]1ccn([O-])c2ccccc21
2. O=C1c2ccccc2C(=O)C1c1ccc(Cl)cc1
3. CO
4. F[Si-2](F)(F)(F)(F)F
5. O=C(/C=C/c1cccc(F)c1)NC1CC1
6. CCOc1cc(-c2nccc3cc(OC)c(OC)cc23)cc(OCC)c1OCC
7. Nc1ccc(N=Nc2ccccc2)c(N)n1
8. CS(=O)(=O)OCC(O)C(O)COS(C)(=O)=O (centres undefined)

["6.86% (inactive)", "-9.28% (inactive)", "1.83% (inactive)", "7.11% (inactive)", "2.97% (inactive)", "-11.1% (inactive)", "0.697% (inactive)", "2.66% (inactive)"]

Batch request: ratio activity, negative = inhibition per item, same order as input.
1. O=C(O)/C=C/C(=O)Nc1ccc(S(=O)(=O)Nc2nccs2)cc1
2. O=C(O)CC/C=C\CC[C@@H]1[C@@H](N2CCCCC2)[C@@H](O)C[C@@H]1OCc1ccc(-c2ccccc2)cc1

1. 1.33% (inactive)
2. -1.41% (inactive)

Batch request: ratio activity, negative = inhibition per item, same order as input.
1. CC1=CC(=O)NS(=O)(=O)O1
2. C=CCCCCCCCCC(=O)OC
3. CC(=O)Oc1cc(C(F)(F)F)ccc1C(=O)O
4. CCc1ncnc2cc(OC)c(OC)cc12
5. CN1C(=O)C[C@@H](C(=O)N[C@@H](Cc2cnc[nH]2)C(=O)N2CCC[C@H]2C(N)=O)NC1=O
6. O=C(NNCNNC(=O)c1ccncc1)c1ccncc1

["1.96% (inactive)", "-14.3% (inactive)", "-5.78% [at 17.1 µM] (inactive)", "-3.22% (inactive)", "-0.824% (inactive)", "-2.76% (inactive)"]

Batch request: ratio activity, negative = inhibition per item, same order as input.
1. CNC(=O)C[C@@H](N)C(=O)N[C@@H](C(=O)N[C@@H]1C(=O)N2[C@@H]1SC(C)(C)[C@@H]2C(=O)O)c1ccc(O)cc1
2. CC[C@H]1OC(=O)[C@H](C)[C@@H](O[C@H]2C[C@@](C)(OC)[C@@H](O)[C@H](C)O2)C(C)[C@@H](O[C@@H]2O[C@H](C)C[C@H](N(C)C)[C@@H]2O)[C@](C)(OC)C[C@@H](C)C(=O)[C@H](C)[C@@H](O)[C@]1(C)O (some centres undefined)
3. COc1ccc(/C=N/NC(=O)c2ccncc2)c(C(=O)O)c1OC
4. CC(=O)N=c1sc(S(N)(=O)=O)nn1C

1. -2.79% (inactive)
2. 4.6% (inactive)
3. 4.12% (inactive)
4. -0.416% [at 17.1 µM] (inactive)

Batch request: ratio activity, negative = inhibition per item, same order as input.
1. CCCCC[C@H](O)/C=C/[C@H]1[C@H](O)CC(=O)[C@@H]1C/C=C\CCCC(=O)O
2. CC/C=C\C/C=C\C/C=C\CCCCCCCC(=O)O
3. CO[C@H]1C[C@@H]2CC[C@@H](C)[C@@](O)(O2)C(=O)C(=O)N2CCCC[C@H]2C(=O)O[C@H]([C@H](C)C[C@@H]2CC[C@@H](OC(=O)C(C)(CO)CO)[C@H](OC)C2)CC(=O)[C@H](C)/C=C(\C)[C@@H](O)[C@@H](OC)C(=O)[C@H](C)C[C@H](C)/C=C/C=C/C=C/1C
4. CC(CNC(=O)c1cccnc1)NC(=O)c1cccnc1 (centres undefined)
5. C[C@H](CCC(=O)O)[C@H]1CC[C@H]2[C@@H]3CC[C@@H]4C[C@H](O)CC[C@]4(C)[C@H]3C[C@H](O)[C@]12C
6. CCCCC(CC)CCC(CC(C)C)OS(=O)(=O)O (centres undefined)
7. CC/C=C\C/C=C\C/C=C\C/C=C\C/C=C\C/C=C\CCC(=O)O

-1.59% (inactive)
3.48% (inactive)
-3.79% (inactive)
0% (inactive)
1.95% (inactive)
0% (inactive)
0.57% (inactive)

Batch request: ratio activity, negative = inhibition per item, same order as input.
1. O=c1[nH]c(=O)n([C@H]2C[C@H](O)[C@@H](CO)O2)cc1/C=C/Br
2. O=C(O)[C@H]1C(=CCO)O[C@H]2CC(=O)N12
3. CCCCCCCCCC(=O)NO
4. Cc1c(Cl)cccc1Nc1ncccc1C(=O)O

1: -1.39% (inactive); 2: -34.7% (inactive); 3: 5.56% (inactive); 4: -7.17% (inactive)
